# target.system: Protein farnesyltransferase subunit beta/geranylgeranyltransferase type-1 subunit alpha (Saccharomyces cerevisiae (strain ATCC 204508 / S288c), UniProt P22007+P29703)
# Sequence (P22007 whole entry): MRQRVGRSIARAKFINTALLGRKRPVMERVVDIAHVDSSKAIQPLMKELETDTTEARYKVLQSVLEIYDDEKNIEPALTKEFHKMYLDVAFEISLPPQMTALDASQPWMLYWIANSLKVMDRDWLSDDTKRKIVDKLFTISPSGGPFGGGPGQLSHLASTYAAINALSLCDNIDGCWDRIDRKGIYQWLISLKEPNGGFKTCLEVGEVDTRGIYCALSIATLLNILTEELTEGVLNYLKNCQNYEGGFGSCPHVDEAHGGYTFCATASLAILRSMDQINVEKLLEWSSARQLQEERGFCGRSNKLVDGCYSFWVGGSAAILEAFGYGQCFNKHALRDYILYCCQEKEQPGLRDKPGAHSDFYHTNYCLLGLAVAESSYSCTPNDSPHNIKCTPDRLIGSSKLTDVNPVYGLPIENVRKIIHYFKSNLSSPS
# Sequence (P29703 whole entry): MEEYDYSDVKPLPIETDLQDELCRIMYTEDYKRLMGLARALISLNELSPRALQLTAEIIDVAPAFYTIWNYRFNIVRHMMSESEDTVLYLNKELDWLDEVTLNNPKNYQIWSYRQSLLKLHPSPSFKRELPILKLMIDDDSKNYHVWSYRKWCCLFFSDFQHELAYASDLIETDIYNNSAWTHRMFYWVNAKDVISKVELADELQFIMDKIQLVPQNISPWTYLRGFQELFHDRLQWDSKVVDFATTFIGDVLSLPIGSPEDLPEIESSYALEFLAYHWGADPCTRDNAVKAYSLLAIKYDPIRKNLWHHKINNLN
# method: Fluorescence-Based PFTase Inhibition Assay
# experimental.conditions: pH 7.5; 30 °C
Define the label as True when IC50 is strictly less than 60 µM and as False in all remaining cases.

[
  {
    "compound": "CC(=O)/C=C/[C@@]12O[C@@H]1C[C@H]1[C@H](C[C@@H]2C)OC(=O)[C@@H]1C",
    "group.label": "False"
  },
  {
    "compound": "C=C1C(=O)O[C@H]2C[C@H](C)C(C(CC(C)=O)OC(C)=O)=CC[C@H]12 (stereo partly drawn) [α-Methylene-γ-lactone, 1]",
    "group.label": "False"
  },
  {
    "compound": "C=C1C(=O)O[C@H]2C[C@H](C)[C@@]3(/C=C/C(C)=O)O[C@H]3C[C@H]12 [Xanthatin-1,5β-epoxide (4)]",
    "group.label": "False"
  },
  {
    "compound": "CC(=O)OC(CC(C)O)C1=CC[C@H]2[C@H](C[C@@H]1C)OC(=O)[C@@H]2C (stereo partly specified)",
    "group.label": "False"
  },
  {
    "compound": "C/C=C(/C)C(=O)O[C@H]1[C@H]2[C@H](C)C(=O)O[C@@H]2C[C@@H](C)[C@@H]2C=CC(=O)[C@]21C [6-O-angeloylprenolin]",
    "group.label": "True"
  },
  {
    "compound": "C=C1C(=O)O[C@H]2C[C@H](C)C(C(CC(C)OC(C)=O)OC(C)=O)=CC[C@H]12 (stereo partly drawn) [Acetyl-4-epi-isoxanthanol (6)]",
    "group.label": "True"
  },
  {
    "compound": "CC(O)/C=C/C1=CC[C@H]2[C@H](C[C@@H]1C)OC(=O)[C@@H]2C (stereo partly drawn) [4,11β,13-Tetrahydroxanthatin (8)]",
    "group.label": "False"
  },
  {
    "compound": "C=C1C(=O)O[C@H]2C[C@H](C)C(C(CC(C)O)OC(C)=O)=CC[C@H]12 (stereo partly drawn) [α-Methylene-γ-lactone, 3]",
    "group.label": "False"
  },
  {
    "compound": "C=C1C(=O)O[C@@H]2C[C@H](C)[C@]3(/C=C/C(C)=O)O[C@@H]3C[C@H]12 [8-Epi-xanthatin-1,5α-epoxide]",
    "group.label": "True"
  },
  {
    "compound": "CC(O)CCC1=CC[C@@H]2C(C)C(=O)O[C@H]2C[C@@H]1C (stereo partly specified) [4,11,13-Tetrahydroxanthinosin (14)]",
    "group.label": "False"
  },
  {
    "compound": "C=C1C(=O)O[C@H]2C[C@H](C)c3cc(C(C)=O)oc3C[C@H]12 [3,5-Oxyxanthatin (7)]",
    "group.label": "False"
  },
  {
    "compound": "C=C1C(=O)O[C@@H]2C[C@H](C)C(/C=C/C(C)=O)=CC[C@H]12 [8-Epi-xanthatin]",
    "group.label": "False"
  },
  {
    "compound": "CC(=O)OC(C)/C=C/C1=CC[C@H]2[C@H](C[C@@H]1C)OC(=O)[C@@H]2C (stereo partly drawn) [2,3-(E)-Dehydro-4-epi-isoxanthanol (9)]",
    "group.label": "False"
  },
  {
    "compound": "CC(=O)OC(C)CC(OC(C)=O)C1=CC[C@H]2[C@H](C[C@@H]1C)OC(=O)[C@@H]2C (stereo partly specified)",
    "group.label": "True"
  },
  {
    "compound": "C=C1C(=O)O[C@@H]2C3C4(C=C[C@@]3(C)C3(C4)C(=O)O[C@@H]4[C@H]5C(C)=CC(=O)[C@H]5[C@@H](C)C[C@H](OC(=O)/C(C)=C\\C)[C@H]43)[C@](C)(O)CC[C@@H]12 (stereo partly specified) [Arteminolide C']",
    "group.label": "True"
  },
  {
    "compound": "CC(=O)CCC1=CC[C@@H]2C(C)C(=O)O[C@H]2C[C@@H]1C (stereo partly specified) [11,13-Dihydroxanthinosin (13)]",
    "group.label": "False"
  },
  {
    "compound": "C=C1C(=O)O[C@H]2C[C@H](C)[C@]3(/C=C/C(C)=O)O[C@@H]3C[C@H]12 [Xanthatin-1,5α-epoxide (5)]",
    "group.label": "False"
  },
  {
    "compound": "C=C1C(=O)O[C@H]2C[C@H](C)C(/C=C/C(C)=O)=CC[C@H]12 [Xanthatin (2)]",
    "group.label": "False"
  },
  {
    "compound": "C/C=C(/C)C(=O)O[C@H]1C[C@H](C)[C@@H]2C(=O)C=C(C)[C@@H]2[C@H]2OC(=O)C3(CC45C=C[C@]3(C)C4[C@H]3OC(=O)C(C)[C@@H]3CC[C@@]5(C)O)[C@@H]21 (stereo partly specified) [Arteminolide C]",
    "group.label": "True"
  },
  {
    "compound": "CC(=O)/C=C/C1=CC[C@H]2[C@H](C[C@@H]1C)OC(=O)[C@@H]2C [11β,13-Dihydroxanthatin (10)]",
    "group.label": "False"
  },
  {
    "compound": "CC(=O)/C=C/[C@]12O[C@H]1C[C@H]1[C@H](C[C@@H]2C)OC(=O)[C@@H]1C",
    "group.label": "False"
  }
]
